System: AR mRNA
method.notes: AR mRNA in C4-2B cells by free uptake (hAR_LTS00943)
Format: cell-based, human
measurement.parameters: free uptake, dose 1.00 μM, 24 hrs
Oligonucleotides are written 5' to 3', each unit as a sugar letter and its base; * is a phosphorothioate linkage, no mark a phosphodiester; rarer units and linkages stand in square brackets, end groups in braces. Plain capitals give the bases only. k = constrained ethyl (cEt); [5mC] = 5-methylcytosine; d = 2'-deoxy (DNA)
quantity.measured: Percent inhibition of AR full-length mRNA (%)
Only the number, expressed in %, is required.

Enquiry: Value lookup for Percent inhibition of AR full-length mRNA; key = GTTGATTTAATGGTTG (all phosphorothioate, sugars by position not given here; further chemistry not fully specified) [ISIS 549458]
Return: 80

Enquiry: What Percent inhibition of AR full-length mRNA value was documented for this sequence, AAGTTGTAGTAGTCGC (kA*kA*kG*dT*dT*dG*dT*dA*dG*dT*dA*dG*dT*k[5mC]*kG*k[5mC]) [ISIS 549372, targets exon 1] ?
Return: 73

Enquiry: I am curious: what Percent inhibition of AR full-length mRNA value has been reported for CTAAACTTCCCGTGGC (k[5mC]*kT*kA*dA*dA*d[5mC]*dT*dT*d[5mC]*d[5mC]*d[5mC]*dG*dT*kG*kG*k[5mC]) [ISIS 549434, targets 3'-end of exon 8] ?
Return: 52

Enquiry: Fill in the blank: the reported Percent inhibition of AR full-length mRNA of ACCAAGTTTCTTCAGC (LNA gapmer, phosphorothioate backbone, further chemistry not given here) [ISIS 554221, 3-10-3 LNA gapmer, phosphorothioate backbone, targeted to exon 4 of AR; benchmark, reference compound] is ____.
Return: 0

----------
System: AR mRNA
method.notes: AR mRNA levels in LMR20 cells (with/without DHT or R1881)
Type: cell-based, human
measurement.parameters: LMR20 cells, DHT 10 nM 72 hrs, ASO 1.0 μM
Method: LMR20 cells were plated at 1,500 cells per well in phenol red-free medium with CSS.
Oligonucleotides are written 5' to 3', each unit as a sugar letter and its base; * is a phosphorothioate linkage, no mark a phosphodiester; rarer units and linkages stand in square brackets, end groups in braces. Plain capitals give the bases only. e = 2'-O-(2-methoxyethyl) (MOE); l = locked nucleic acid (LNA); k = constrained ethyl (cEt); [5mC] = 5-methylcytosine; d = 2'-deoxy (DNA)
quantity.measured: AR mRNA levels (% baseline value) after treatment with DHT
Response body: numeric value in % baseline value, unit text excluded.

Enquiry: Query (substance): 560131 (antisense kT*kT*kG*dA*dT*dT*dT*dA*dA*dT*dG*dG*kT*kT*kG*e[5mC]) [compound 560131] ; field requested: AR mRNA levels (% baseline value) after treatment with DHT
Return: 25

Enquiry: Quick one: AR mRNA levels (% baseline value) after treatment with DHT for 554221 (ACCAAGTTTCTTCAGC; sugars from the 5' end l3 d10 l3, all phosphorothioate, methylation of C not given here) [compound 554221] ?
Return: 136

Enquiry: # input substance: 549458 (kG*kT*kT*dG*dA*dT*dT*dT*dA*dA*dT*dG*dG*kT*kT*kG) [compound 549458] ; wanted: its AR mRNA levels (% baseline value) after treatment with DHT
Return: 34

Enquiry: Which AR mRNA levels (% baseline value) after treatment with DHT reading was recorded for the substance 569236 (antisense eT*kG*kA*kT*dT*dT*dA*dA*dT*dG*dG*kT*kT*kG*e[5mC]*eA) [compound 569236] ?
Return: 44

The measured values listed here are drawn from patent USRE48461E1.
